Sourced from ChEMBL document CHEMBL4808179

Tested on: Enterococcus faecium
Assay: Antibacterial activity against vancomycin resistant Enterococcus faecium Van A HS-0649 assessed as inhibition of bacterial growth
Type: functional
// reported MIC for each item listed
assay-endpoint: MIC (µg/mL)

mol: CN[C@H](CC(C)C)C(=O)N[C@H]1C(=O)N[C@@H](CC(N)=O)C(=O)N[C@H]2C(=O)N[C@H]3C(=O)N[C@H](C(=O)N[C@H](C(=O)N[C@@H](CCCNC(=N)N)C(=O)O)c4cc(O)cc(O)c4-c4cc3ccc4O)[C@H](O)c3ccc(c(Cl)c3)Oc3cc2cc(c3O[C@@H]2O[C@H](CO)[C@@H](O)[C@H](O)[C@H]2O[C@H]2C[C@](C)(N)[C@H](O)[C@H](C)O2)Oc2ccc(cc2Cl)[C@H]1O
assay-endpoint: MIC
reading-qualifier: >
recorded-result: 128
//
mol: CN[C@H](CC(C)C)C(=O)N[C@H]1C(=O)N[C@@H](CC(N)=O)C(=O)N[C@H]2C(=O)N[C@H]3C(=O)N[C@H](C(=O)N[C@H](C(=O)N[C@@H](CCCNC(=N)N)C(N)=O)c4cc(O)cc(O)c4-c4cc3ccc4O)[C@H](O)c3ccc(c(Cl)c3)Oc3cc2cc(c3O[C@@H]2O[C@H](CO)[C@@H](O)[C@H](O)[C@H]2O[C@H]2C[C@](C)(N)[C@H](O)[C@H](C)O2)Oc2ccc(cc2Cl)[C@H]1O
assay-endpoint: MIC
reading-qualifier: =
recorded-result: 64
//
mol: CN[C@H](CC(C)C)C(=O)N[C@H]1C(=O)N[C@@H](CC(N)=O)C(=O)N[C@H]2C(=O)N[C@H]3C(=O)N[C@H](C(=O)N[C@H](C(=O)N/N=C/c4ccccc4)c4cc(O)cc(O)c4-c4cc3ccc4O)[C@H](O)c3ccc(c(Cl)c3)Oc3cc2cc(c3O[C@@H]2O[C@H](CO)[C@@H](O)[C@H](O)[C@H]2O[C@H]2C[C@](C)(N)[C@H](O)[C@H](C)O2)Oc2ccc(cc2Cl)[C@H]1O
assay-endpoint: MIC
reading-qualifier: =
recorded-result: 128

====

Test system: Staphylococcus aureus
Test: Antibacterial activity against methicillin-susceptible Staphylococcus aureus Newman assessed as bacterial growth inhibition
Format: functional

mol: CN[C@H](CC(C)C)C(=O)N[C@H]1C(=O)N[C@@H](CC(N)=O)C(=O)N[C@H]2C(=O)N[C@H]3C(=O)N[C@H](C(=O)N[C@H](C(=O)N/N=C/c4ccc(-c5ccc(Cl)cc5)cc4)c4cc(O)cc(O)c4-c4cc3ccc4O)[C@H](O)c3ccc(c(Cl)c3)Oc3cc2cc(c3O[C@@H]2O[C@H](CO)[C@@H](O)[C@H](O)[C@H]2O[C@H]2C[C@](C)(N)[C@H](O)[C@H](C)O2)Oc2ccc(cc2Cl)[C@H]1O
reading-qualifier: =
MIC [µg/mL]: 0.5
//
mol: CN[C@H](CC(C)C)C(=O)N[C@H]1C(=O)N[C@@H](CC(N)=O)C(=O)N[C@H]2C(=O)N[C@H]3C(=O)N[C@H](C(=O)N[C@H](C(=O)NNCc4ccccc4)c4cc(O)cc(O)c4-c4cc3ccc4O)[C@H](O)c3ccc(c(Cl)c3)Oc3cc2cc(c3O[C@@H]2O[C@H](CO)[C@@H](O)[C@H](O)[C@H]2O[C@H]2C[C@](C)(N)[C@H](O)[C@H](C)O2)Oc2ccc(cc2Cl)[C@H]1O
reading-qualifier: =
MIC [µg/mL]: 1
//
mol: CN[C@H](CC(C)C)C(=O)N[C@H]1C(=O)N[C@@H](CC(N)=O)C(=O)N[C@H]2C(=O)N[C@H]3C(=O)N[C@H](C(=O)N[C@H](C(=O)N/N=C/c4ccc(-c5ccccc5)cc4)c4cc(O)cc(O)c4-c4cc3ccc4O)[C@H](O)c3ccc(c(Cl)c3)Oc3cc2cc(c3O[C@@H]2O[C@H](CO)[C@@H](O)[C@H](O)[C@H]2O[C@H]2C[C@](C)(N)[C@H](O)[C@H](C)O2)Oc2ccc(cc2Cl)[C@H]1O
reading-qualifier: ≤
MIC [µg/mL]: 0.0625

====

Tested on: Staphylococcus aureus
Assay: Antibacterial activity against methicillin-susceptible Staphylococcus aureus Newman assessed as bacterial growth inhibition
Format: functional

mol: CN[C@H](CC(C)C)C(=O)N[C@H]1C(=O)N[C@@H](CC(N)=O)C(=O)N[C@H]2C(=O)N[C@H]3C(=O)N[C@H](C(=O)N[C@H](C(=O)N[C@@H](CCCNC(=N)N)C(=O)O)c4cc(O)cc(O)c4-c4cc3ccc4O)[C@H](O)c3ccc(c(Cl)c3)Oc3cc2cc(c3O[C@@H]2O[C@H](CO)[C@@H](O)[C@H](O)[C@H]2O[C@H]2C[C@](C)(N)[C@H](O)[C@H](C)O2)Oc2ccc(cc2Cl)[C@H]1O
scale-unit: µg/mL
MIC: 8
--
mol: CN[C@H](CC(C)C)C(=O)N[C@H]1C(=O)N[C@@H](CC(N)=O)C(=O)N[C@H]2C(=O)N[C@H]3C(=O)N[C@H](C(=O)N[C@H](C(=O)N[C@@H](CS)C(=O)O)c4cc(O)cc(O)c4-c4cc3ccc4O)[C@H](O)c3ccc(c(Cl)c3)Oc3cc2cc(c3O[C@@H]2O[C@H](CO)[C@@H](O)[C@H](O)[C@H]2O[C@H]2C[C@](C)(N)[C@H](O)[C@H](C)O2)Oc2ccc(cc2Cl)[C@H]1O
scale-unit: µg/mL
MIC: 64
--
mol: CN[C@H](CC(C)C)C(=O)N[C@H]1C(=O)N[C@@H](CC(N)=O)C(=O)N[C@H]2C(=O)N[C@H]3C(=O)N[C@H](C(=O)N[C@H](C(=O)N/N=C/c4ccc(-c5ccc(C(F)(F)F)cc5)cc4)c4cc(O)cc(O)c4-c4cc3ccc4O)[C@H](O)c3ccc(c(Cl)c3)Oc3cc2cc(c3O[C@@H]2O[C@H](CO)[C@@H](O)[C@H](O)[C@H]2O[C@H]2C[C@](C)(N)[C@H](O)[C@H](C)O2)Oc2ccc(cc2Cl)[C@H]1O
scale-unit: µg/mL
MIC: 1

====

System: Enterococcus faecium
Test: Antibacterial activity against vancomycin resistant Enterococcus faecium Van A HS-0649 assessed as inhibition of bacterial growth
Assay type: functional
Parameter MIC: see the listing below.
assay-endpoint: MIC (µg/mL)

mol: CN[C@H](CC(C)C)C(=O)N[C@H]1C(=O)N[C@@H](CC(N)=O)C(=O)N[C@H]2C(=O)N[C@H]3C(=O)N[C@H](C(=O)N[C@H](C(=O)N/N=C/c4ccc(-c5ccc(C(F)(F)F)cc5)cc4)c4cc(O)cc(O)c4-c4cc3ccc4O)[C@H](O)c3ccc(c(Cl)c3)Oc3cc2cc(c3O[C@@H]2O[C@H](CO)[C@@H](O)[C@H](O)[C@H]2O[C@H]2C[C@](C)(N)[C@H](O)[C@H](C)O2)Oc2ccc(cc2Cl)[C@H]1O
recorded-result: 4
//
mol: CN[C@H](CC(C)C)C(=O)N[C@H]1C(=O)N[C@@H](CC(N)=O)C(=O)N[C@H]2C(=O)N[C@H]3C(=O)N[C@H](C(=O)N[C@H](C(=O)NNCc4ccc(-c5ccc(Cl)cc5)cc4)c4cc(O)cc(O)c4-c4cc3ccc4O)[C@H](O)c3ccc(c(Cl)c3)Oc3cc2cc(c3O[C@@H]2O[C@H](CO)[C@@H](O)[C@H](O)[C@H]2O[C@H]2C[C@](C)(N)[C@H](O)[C@H](C)O2)Oc2ccc(cc2Cl)[C@H]1O
recorded-result: 16

====

Recorded MIC, one value per entry.
Tested on: Enterococcus faecium
Assay: Antibacterial activity against vancomycin resistant Enterococcus faecium Van M HS-08267 assessed as inhibition of bacterial growth
Format: functional

mol: CN[C@H](CC(C)C)C(=O)N[C@H]1C(=O)N[C@@H](CC(N)=O)C(=O)N[C@H]2C(=O)N[C@H]3C(=O)N[C@H](C(=O)N[C@H](C(=O)N/N=C/c4ccccc4)c4cc(O)cc(O)c4-c4cc3ccc4O)[C@H](O)c3ccc(c(Cl)c3)Oc3cc2cc(c3O[C@@H]2O[C@H](CO)[C@@H](O)[C@H](O)[C@H]2O[C@H]2C[C@](C)(N)[C@H](O)[C@H](C)O2)Oc2ccc(cc2Cl)[C@H]1O
MIC: 64 µg/mL
//
mol: CN[C@H](CC(C)C)C(=O)N[C@H]1C(=O)N[C@@H](CC(N)=O)C(=O)N[C@H]2C(=O)N[C@H]3C(=O)N[C@H](C(=O)N[C@H](C(=O)NNCc4ccccc4)c4cc(O)cc(O)c4-c4cc3ccc4O)[C@H](O)c3ccc(c(Cl)c3)Oc3cc2cc(c3O[C@@H]2O[C@H](CO)[C@@H](O)[C@H](O)[C@H]2O[C@H]2C[C@](C)(N)[C@H](O)[C@H](C)O2)Oc2ccc(cc2Cl)[C@H]1O
MIC: 32 µg/mL
//
mol: CN[C@H](CC(C)C)C(=O)N[C@H]1C(=O)N[C@@H](CC(N)=O)C(=O)N[C@H]2C(=O)N[C@H]3C(=O)N[C@H](C(=O)N[C@H](C(=O)NNCc4ccc(-c5ccccc5)cc4)c4cc(O)cc(O)c4-c4cc3ccc4O)[C@H](O)c3ccc(c(Cl)c3)Oc3cc2cc(c3O[C@@H]2O[C@H](CO)[C@@H](O)[C@H](O)[C@H]2O[C@H]2C[C@](C)(N)[C@H](O)[C@H](C)O2)Oc2ccc(cc2Cl)[C@H]1O
MIC: 4 µg/mL
